// Fold Change Compared to WT PD-L1 lookup, one value per entry
- tested.target: CD80 expressed on cells (Homo sapiens)
- Sequence (chain, as listed by the source): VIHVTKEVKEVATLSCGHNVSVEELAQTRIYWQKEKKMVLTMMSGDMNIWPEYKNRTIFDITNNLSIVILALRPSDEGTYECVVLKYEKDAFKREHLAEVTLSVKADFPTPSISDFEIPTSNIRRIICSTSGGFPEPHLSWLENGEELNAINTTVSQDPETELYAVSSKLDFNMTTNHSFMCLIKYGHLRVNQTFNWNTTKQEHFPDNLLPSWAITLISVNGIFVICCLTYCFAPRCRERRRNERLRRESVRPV
- assay.explanation: flow cytometry, cells expressing CD80
Quick one: just the number, no unit, thanks!

Query: Return Fold Change Compared to WT PD-L1 (reported value) for this binder: variant PD-L1 ECD-Fc N17D, M97L, S99G (Fc fusion) FTVTVPKDLYVVEYGSDMTIECKFPVEKQLDLAALIVYWEMEDKNIIQFVHGEEDLKVQHSSYRQRARLLKDQLSLGNAALQITDVKLQDAGVYRCLIGYGGADYKRITVKVNAPYNKINQRILVVDPVTSEHELTCQAEGYPKAEVIWTSSDHQVLSGKTTTTNSKREEKLFNVTSTLRINTTTNEIFYCTFRRLDPEENHTAELVIPELPLAHPPNER
Reply: 547

Query: Report Fold Change Compared to WT PD-L1, nothing else, for this binder: variant PD-L1 ECD-Fc K57R, S99G, R195G (Fc fusion) FTVTVPKDLYVVEYGSNMTIECKFPVEKQLDLAALIVYWEMEDKNIIQFVHGEEDLRVQHSSYRQRARLLKDQLSLGNAALQITDVKLQDAGVYRCMIGYGGADYKRITVKVNAPYNKINQRILVVDPVTSEHELTCQAEGYPKAEVIWTSSDHQVLSGKTTTTNSKREEKLFNVTSTLRINTTTNEIFYCTFRGLDPEENHTAELVIPELPLAHPPNER
Reply: 81.8

Query: Name the recorded Fold Change Compared to WT PD-L1 of the item variant PD-L1 ECD-Fc I36T, M97L, Q155H, F193S, N201Y (Fc fusion) FTVTVPKDLYVVEYGSNMTIECKFPVEKQLDLAALTVYWEMEDKNIIQFVHGEEDLKVQHSSYRQRARLLKDQLSLGNAALQITDVKLQDAGVYRCLISYGGADYKRITVKVNAPYNKINQRILVVDPVTSEHELTCQAEGYPKAEVIWTSSDHHVLSGKTTTTNSKREEKLFNVTSTLRINTTTNEIFYCTSRRLDPEEYHTAELVIPELPLAHPPNER in your answer.
Reply: 9.3

Now for a further binder.
Query: Consider the binder variant PD-L1 ECD-Fc K57R, S99G, L124S, K144Q (Fc fusion) FTVTVPKDLYVVEYGSNMTIECKFPVEKQLDLAALIVYWEMEDKNIIQFVHGEEDLRVQHSSYRQRARLLKDQLSLGNAALQITDVKLQDAGVYRCMIGYGGADYKRITVKVNAPYNKINQRISVVDPVTSEHELTCQAEGYPQAEVIWTSSDHQVLSGKTTTTNSKREEKLFNVTSTLRINTTTNEIFYCTFRRLDPEENHTAELVIPELPLAHPPNER . State its measured Fold Change Compared to WT PD-L1.
Reply: 105
